# experimentSummary: Cytotoxicity against mouse NIH/3T3 cells by WST dye based CCK8 assay
# Format: cell-based
# testContext: NIH3T3
pIC50: −log10 of the molar value.
propertyLabel: pIC50

So for "COC(=O)N[C@@H](C(=O)N1CCC[C@H]1C(=O)Nc1ccc2c(c1)C(F)(F)c1cc(NC(=O)[C@@H]3CCCN3C(=O)[C@H](NC(=O)OC)c3ccccc3)ccc1-2)c1ccccc1" , the logged pIC50 turned out to be < 4.00

###

Provide the reported half-life of each item.
# experimentSummary: Half life in Sprague-Dawley rat at 10 mg/kg, po by LC/MS/MS method
# Assay type: ADME, organism-based
# testContext: in vivo
One number for each entry, in h.

COC(=O)N[C@@H](C(=O)N1CCC[C@H]1C(=O)Nc1ccc2c(c1)C(C)(C)c1cc(NC(=O)[C@@H]3CCCN3C(=O)[C@H](NC(=O)OC)c3ccccc3)ccc1-2)c1ccccc1 | 4.45

Provide the reported half-life of each entry below, same order.
1. COC(=O)N[C@@H](C(=O)N1CCC[C@H]1C(=O)Nc1ccc(-c2ccc(NC(=O)[C@@H]3CCCN3C(=O)[C@H](NC(=O)OC)c3ccccc3)cc2Cl)c(Cl)c1)c1ccccc1
2. COC(=O)N[C@@H](C(=O)N1CCC[C@H]1C(=O)Nc1ccc(-c2ccc(NC(=O)[C@@H]3CCCN3C(=O)[C@H](NC(=O)OC)c3ccccc3)cc2F)c(F)c1)c1ccccc1
3. COC(=O)N[C@@H](C(=O)N1CCC[C@H]1C(=O)Nc1ccc(-c2ccc(NC(=O)[C@@H]3CCCN3C(=O)[C@H](NC(=O)OC)c3ccccc3)cc2C(F)(F)F)c(C(F)(F)F)c1)c1ccccc1 (stereo in doubt; form 1)
4. COC(=O)N[C@@H](C(=O)N1CCC[C@H]1C(=O)Nc1ccc2c(c1)C(F)(F)c1cc(NC(=O)[C@@H]3CCCN3C(=O)[C@H](NC(=O)OC)c3ccccc3)ccc1-2)c1ccccc1

6.37
2.34
3.8
1.68
